# tested_target: TRAF6/Uev1A/Ubc13 (Homo sapiens, UniProt Q9Y4K3)
# Sequence (Q9Y4K3 1-522): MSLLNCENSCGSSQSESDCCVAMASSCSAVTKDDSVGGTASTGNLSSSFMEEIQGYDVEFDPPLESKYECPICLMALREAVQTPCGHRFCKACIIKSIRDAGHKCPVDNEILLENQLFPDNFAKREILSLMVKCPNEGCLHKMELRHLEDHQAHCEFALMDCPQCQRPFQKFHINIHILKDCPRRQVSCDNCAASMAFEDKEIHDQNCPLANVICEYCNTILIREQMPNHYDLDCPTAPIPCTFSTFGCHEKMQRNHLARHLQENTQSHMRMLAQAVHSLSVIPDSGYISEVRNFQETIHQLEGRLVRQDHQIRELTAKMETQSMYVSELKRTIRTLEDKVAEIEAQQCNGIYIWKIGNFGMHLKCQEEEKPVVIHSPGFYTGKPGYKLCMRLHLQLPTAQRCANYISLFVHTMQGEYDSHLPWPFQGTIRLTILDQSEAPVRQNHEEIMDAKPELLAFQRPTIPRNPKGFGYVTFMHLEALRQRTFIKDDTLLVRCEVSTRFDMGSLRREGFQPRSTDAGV
# assay_overview: TRAF6/Uev1A/Ubc13 plate-based ubiquitin ligase assay
# Description: For the assays described below, the TRAF6/Uev1A/UBC13 assay is the biochemical plate-based assay of TRAF6 ligase activity using Ubc13 as the E2 enzyme. […] A 96-well Ni-plate was blocked with 100 μl of 1% casein in PBS for 1 hour at room temperature. […] The amount of ubiquitin was measured by adding 100 μl of Lumino substrate (1:5 dilution) and reading the luminescence with a fluorimeter. […]
reported_endpoint: IC50

Prompt: Respond only with IC50 recorded for COC(=O)c1ccc(NS(=O)(=O)c2ccc(Sc3ccc(O)cc3)c3nonc23)cc1
Completion: ≥ 20 µM

Prompt: Respond only with IC50 recorded for N#Cc1cccnc1N1CCN(c2cc(N3CCCCC3)c([N+](=O)[O-])c3nonc23)CC1
Completion: ≥ 20 µM

Prompt: Respond only with IC50 recorded for O=[N+]([O-])c1ccc(N2CCC(O)(c3ccc(Cl)cc3)CC2)c2nonc12
Completion: 1 to 20 µM

Prompt: Respond only with IC50 recorded for COc1ccccc1-c1cc([N+](=O)[O-])cc2nonc12
Completion: ≥ 20 µM

Prompt: Respond only with IC50 recorded for COC(=O)c1ccc(NS(=O)(=O)c2c(Cl)ccc3nonc23)cc1
Completion: ≥ 20 µM

Prompt: Respond only with IC50 recorded for O=S(=O)(Nc1cccc(F)c1F)c1ccc(F)c2nonc12
Completion: 1 to 20 µM

Prompt: Respond only with IC50 recorded for N#CC1(c2ccccc2)CCN(S(=O)(=O)c2ccc(O)c3nonc23)CC1
Completion: ≥ 20 µM

Prompt: Respond only with IC50 recorded for O=C(c1ccc(F)cc1)C1CCN(c2ccc([N+](=O)[O-])c3nonc23)CC1
Completion: 1 to 20 µM

Prompt: Respond only with IC50 recorded for Oc1ccc2c(c1)cc(Sc1cccc3cccnc13)c1nonc12
Completion: ≥ 20 µM

###

# tested_target: TRAF6/Uev1A/Ubc13 (Homo sapiens)
# assay_overview: TRAF6/Uev1A/Ubc13 plate-based ubiquitin ligase assay
pIC50: −log10 of the molar value.
Would you mind telling me the reported pIC50 of each entry?

Prompt: Respond only with pIC50 recorded for Cc1ccc(NS(=O)(=O)c2ccc(Cl)c3nonc23)c(Cl)c1 [compound 354]
Completion: ≤ 4.70

Prompt: Respond only with pIC50 recorded for Nc1ccc(N2CCN(c3ncc(C(F)(F)F)cc3Cl)CC2)c2nonc12 [compound 279]
Completion: ≤ 4.70

Prompt: Respond only with pIC50 recorded for O=S(=O)(NCc1ccncc1)c1ccc(Cl)c2nonc12 [compound 455]
Completion: ≤ 4.70

Prompt: Respond only with pIC50 recorded for O=S(=O)(c1ccc(Cl)c2nonc12)N1CCC(Oc2ncccn2)CC1 [compound 225]
Completion: ≤ 4.70

Prompt: Respond only with pIC50 recorded for O=S(=O)(NCC1CC1)c1ccc(Cl)c2nonc12 [compound 449]
Completion: ≤ 4.70

Prompt: Respond only with pIC50 recorded for O=[N+]([O-])c1ccc(N2CCN(c3cc(C(F)(F)F)ccn3)CC2)c2nonc12 [compound 90]
Completion: 4.70 to 6.00

Prompt: Respond only with pIC50 recorded for Cc1cccc(N2CCN(S(=O)(=O)c3ccc(Cl)c4nonc34)CC2)n1 [compound 194]
Completion: ≤ 4.70

Prompt: Respond only with pIC50 recorded for O=S(=O)(Nc1ccc(Oc2cc(C(F)(F)F)ccn2)cc1)c1cccc2nonc12 [compound 103]
Completion: ≤ 4.70

Prompt: Respond only with pIC50 recorded for O=[N+]([O-])c1ccc(Sc2cccc3cccnc23)c2nonc12 [compound 5]
Completion: 4.70 to 6.00
